# Measurement Target: STK39 (human) (UniProt Q9UEW8)
# Method Notes: KINOMEscan competition binding
# Measurement Setup: compound 10.0 µM
Reported kinase still bound, per cent of control by item:
Respond with the bare value in %.

[
  {
    "Molecule": "C=CC(=O)Nc1ccc(C(=O)c2sc(Nc3ccc(N4CCN(C)CC4)cc3OC)nc2N)cc1",
    "Measure Unit": "%",
    "kinase still bound, per cent of control": 0
  },
  {
    "Molecule": "CCCS(=O)(=O)Nc1ccc(F)c(C(=O)c2c[nH]c3ncc(Cl)cc23)c1F",
    "Measure Unit": "%",
    "kinase still bound, per cent of control": 100
  },
  {
    "Molecule": "CC(=O)c1c(C)c2cnc(Nc3ccc(N4CCNCC4)cn3)nc2n(C2CCCC2)c1=O",
    "Measure Unit": "%",
    "kinase still bound, per cent of control": 6.8
  },
  {
    "Molecule": "N#C/C(=C1/Nc2ccccc2S1)c1ccnc(NCCc2cccnc2)n1",
    "Measure Unit": "%",
    "kinase still bound, per cent of control": 100
  },
  {
    "Molecule": "CC1=C(C(=O)Nc2cc3cn[nH]c3cc2F)C(c2ccc(C(F)(F)F)cc2)CC(=O)N1 (stereo not given)",
    "Measure Unit": "%",
    "kinase still bound, per cent of control": 86
  }
]

Field kinase still bound, per cent of control (STK39 (human) (UniProt Q9UEW8)), entry CCN(CCO)CCCOc1ccc2c(Nc3cc(CC(=O)Nc4cccc(F)c4)[nH]n3)ncnc2c1 : 100

###

# Tested on: LRRK2 (human), Q5S007 [G2019S]
# Sequence (Q5S007 whole entry G2019S, looked up): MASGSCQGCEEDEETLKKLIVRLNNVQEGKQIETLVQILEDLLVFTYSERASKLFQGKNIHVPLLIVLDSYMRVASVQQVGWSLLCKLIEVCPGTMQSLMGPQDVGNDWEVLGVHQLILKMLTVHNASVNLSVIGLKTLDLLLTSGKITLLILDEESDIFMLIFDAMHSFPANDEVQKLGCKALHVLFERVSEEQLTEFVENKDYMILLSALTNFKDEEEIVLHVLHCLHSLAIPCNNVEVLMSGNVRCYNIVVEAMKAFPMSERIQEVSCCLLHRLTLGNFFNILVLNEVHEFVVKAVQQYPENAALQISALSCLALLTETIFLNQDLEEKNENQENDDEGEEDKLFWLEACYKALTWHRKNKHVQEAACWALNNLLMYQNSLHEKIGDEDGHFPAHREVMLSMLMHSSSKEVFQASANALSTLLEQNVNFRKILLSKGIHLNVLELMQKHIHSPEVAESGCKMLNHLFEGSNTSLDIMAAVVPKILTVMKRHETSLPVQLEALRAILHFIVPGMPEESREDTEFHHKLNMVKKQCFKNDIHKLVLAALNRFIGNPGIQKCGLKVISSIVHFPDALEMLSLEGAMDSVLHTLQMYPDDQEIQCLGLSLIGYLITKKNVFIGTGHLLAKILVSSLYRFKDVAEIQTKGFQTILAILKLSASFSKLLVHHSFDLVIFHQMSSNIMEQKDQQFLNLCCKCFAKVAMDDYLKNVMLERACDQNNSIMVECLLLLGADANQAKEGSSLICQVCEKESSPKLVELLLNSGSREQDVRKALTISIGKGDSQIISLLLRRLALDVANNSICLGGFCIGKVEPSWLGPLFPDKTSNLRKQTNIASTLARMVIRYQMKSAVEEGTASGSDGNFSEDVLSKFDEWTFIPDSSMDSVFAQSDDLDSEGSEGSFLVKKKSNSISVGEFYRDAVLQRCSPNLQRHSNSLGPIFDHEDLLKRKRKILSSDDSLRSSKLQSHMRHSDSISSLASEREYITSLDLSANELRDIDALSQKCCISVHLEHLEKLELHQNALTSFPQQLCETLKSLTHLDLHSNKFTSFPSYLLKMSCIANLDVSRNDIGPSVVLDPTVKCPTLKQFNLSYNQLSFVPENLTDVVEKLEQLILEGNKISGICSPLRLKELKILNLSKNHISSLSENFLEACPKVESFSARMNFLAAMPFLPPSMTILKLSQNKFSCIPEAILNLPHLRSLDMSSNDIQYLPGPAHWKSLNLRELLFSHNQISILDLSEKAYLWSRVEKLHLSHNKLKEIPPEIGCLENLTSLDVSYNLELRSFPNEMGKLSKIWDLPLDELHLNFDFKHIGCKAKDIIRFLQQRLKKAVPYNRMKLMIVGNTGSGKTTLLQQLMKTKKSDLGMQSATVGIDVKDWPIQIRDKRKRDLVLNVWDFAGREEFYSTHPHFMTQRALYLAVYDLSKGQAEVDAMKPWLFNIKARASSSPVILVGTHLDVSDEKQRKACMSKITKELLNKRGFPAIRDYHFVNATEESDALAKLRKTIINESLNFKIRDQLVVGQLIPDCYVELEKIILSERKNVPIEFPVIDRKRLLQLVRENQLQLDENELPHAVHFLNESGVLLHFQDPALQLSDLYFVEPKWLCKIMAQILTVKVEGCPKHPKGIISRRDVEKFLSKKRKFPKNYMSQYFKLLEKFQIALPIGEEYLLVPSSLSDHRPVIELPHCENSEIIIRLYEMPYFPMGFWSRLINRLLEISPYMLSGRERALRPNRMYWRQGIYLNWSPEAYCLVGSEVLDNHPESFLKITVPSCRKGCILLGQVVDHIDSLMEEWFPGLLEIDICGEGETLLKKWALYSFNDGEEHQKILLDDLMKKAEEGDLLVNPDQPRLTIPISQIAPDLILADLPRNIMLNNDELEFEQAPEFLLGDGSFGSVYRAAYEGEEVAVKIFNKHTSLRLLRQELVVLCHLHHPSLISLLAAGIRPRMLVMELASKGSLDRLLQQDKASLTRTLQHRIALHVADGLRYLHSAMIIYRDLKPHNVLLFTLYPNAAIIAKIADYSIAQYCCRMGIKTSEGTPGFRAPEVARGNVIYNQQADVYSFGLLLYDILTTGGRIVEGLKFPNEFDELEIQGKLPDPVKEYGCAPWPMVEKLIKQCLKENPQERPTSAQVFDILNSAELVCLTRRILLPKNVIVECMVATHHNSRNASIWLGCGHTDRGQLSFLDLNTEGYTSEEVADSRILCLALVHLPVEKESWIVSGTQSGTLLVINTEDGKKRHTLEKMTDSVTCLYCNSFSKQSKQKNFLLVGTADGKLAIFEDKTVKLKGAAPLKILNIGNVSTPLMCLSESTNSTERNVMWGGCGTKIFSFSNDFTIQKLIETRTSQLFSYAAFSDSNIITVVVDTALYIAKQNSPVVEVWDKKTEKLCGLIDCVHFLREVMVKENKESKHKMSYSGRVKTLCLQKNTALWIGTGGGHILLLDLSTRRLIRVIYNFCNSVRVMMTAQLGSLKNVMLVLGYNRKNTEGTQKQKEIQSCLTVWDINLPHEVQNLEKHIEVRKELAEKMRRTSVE
# Method Notes: KINOMEscan competition binding
# Measurement Setup: compound 10.0 µM
Value Kind: kinase still bound, per cent of control

As a guide, the following entries are already answered.
[
  {
    "Compound": "CCC(=O)N1CCN(c2ccc(-n3c(=O)ccc4cnc5ccc(-c6cnc7ccccc7c6)cc5c43)cc2C(F)(F)F)CC1",
    "kinase still bound, per cent of control": "99%"
  },
  {
    "Compound": "O=c1[nH]c2ccccc2n1C1CCN(Cc2ccc(-c3nc4cc5[nH]cnc5cc4nc3-c3ccccc3)cc2)CC1",
    "kinase still bound, per cent of control": "100%"
  },
  {
    "Compound": "COc1cc2ncnc(-n3nc(-c4ccccn4)nc3N)c2cc1OC",
    "kinase still bound, per cent of control": "41%"
  },
  {
    "Compound": "CCN1CCN(Cc2ccc(NC(=O)c3ccc(C)c(/C=C/c4cnc5[nH]ccc5c4OC)c3)cc2C(F)(F)F)CC1",
    "kinase still bound, per cent of control": "18%"
  },
  {
    "Compound": "COc1cc(N2CCN(C)CC2)ccc1Nc1nc(N)c(C(=O)c2c(Cl)cccc2Cl)s1",
    "kinase still bound, per cent of control": "97%"
  }
]

Sample CCN1CCN(Cc2ccc(Nc3ncc4c(n3)N(C)c3ccccc3C(=O)N4C)cc2C(F)(F)F)CC1 ; kinase still bound, per cent of control observed: 18%

The compound listed as COc1ccc(N(C(=O)Oc2c(C)cccc2C)c2ccnc(Nc3ccc(N4CCN(C)CC4)cc3)n2)c(OC)c1 shows kinase still bound, per cent of control equal to 84%

kinase still bound, per cent of control reported for this compound C=CC(=O)Nc1cc(-n2c(=O)ccc3cnc4ccc(-c5cn[nH]c5)cc4c32)ccc1C : 6.4%

Query N#CCNC(=O)c1ccc(-c2ccnc(Nc3ccc(N4CCOCC4)cc3)n2)cc1 yields kinase still bound, per cent of control of 41%

Entry COCC(=O)NC/C=C/c1ccc2ncnc(Nc3ccc(Oc4ccc(C)nc4)c(C)c3)c2c1 , kinase still bound, per cent of control reported as 98%

Given item CN(C)C/C=C/C(=O)Nc1ccc(C(=O)Nc2cccc(Nc3nccc(-c4cccnc4)n3)c2)cc1 , the value recorded as its kinase still bound, per cent of control is 76%

Documented kinase still bound, per cent of control of C=CC(=O)Nc1cccc(Nc2nc(N[C@H]3CC[C@H](N(C)C)CC3)nc3c2ncn3C(C)C)c1 : 45%

Quick note, kinase still bound, per cent of control for N#Cc1cc(-c2ccnc(Nc3ccc(-n4cnc(-c5cccnc5)n4)cc3)n2)cc(N2CCOCC2)c1 landed at 53%

// kinase still bound, per cent of control value for CCOc1cc2ncc(C#N)c(Nc3ccc(OCc4ccccn4)c(Cl)c3)c2cc1NC(=O)/C=C/CN(C)C : 85%

Short answer for CC1=C(C(=O)Nc2cc3cn[nH]c3cc2F)C(c2ccc(C(F)(F)F)cc2)CC(=O)N1 (centres undefined) : kinase still bound, per cent of control was 70%

Briefly, kinase still bound, per cent of control measured for NC(=O)Nc1cc(-c2cccc(F)c2)sc1C(=O)N[C@@H]1CCCNC1 : 4.2%

Memo: O=C1Nc2ccc(I)cc2/C1=C/c1cc(Br)c(O)c(Br)c1 , reported kinase still bound, per cent of control: 9%

###

# Measurement Target: UniProt Q86Z02
# Sequence (Q86Z02 whole entry, looked up): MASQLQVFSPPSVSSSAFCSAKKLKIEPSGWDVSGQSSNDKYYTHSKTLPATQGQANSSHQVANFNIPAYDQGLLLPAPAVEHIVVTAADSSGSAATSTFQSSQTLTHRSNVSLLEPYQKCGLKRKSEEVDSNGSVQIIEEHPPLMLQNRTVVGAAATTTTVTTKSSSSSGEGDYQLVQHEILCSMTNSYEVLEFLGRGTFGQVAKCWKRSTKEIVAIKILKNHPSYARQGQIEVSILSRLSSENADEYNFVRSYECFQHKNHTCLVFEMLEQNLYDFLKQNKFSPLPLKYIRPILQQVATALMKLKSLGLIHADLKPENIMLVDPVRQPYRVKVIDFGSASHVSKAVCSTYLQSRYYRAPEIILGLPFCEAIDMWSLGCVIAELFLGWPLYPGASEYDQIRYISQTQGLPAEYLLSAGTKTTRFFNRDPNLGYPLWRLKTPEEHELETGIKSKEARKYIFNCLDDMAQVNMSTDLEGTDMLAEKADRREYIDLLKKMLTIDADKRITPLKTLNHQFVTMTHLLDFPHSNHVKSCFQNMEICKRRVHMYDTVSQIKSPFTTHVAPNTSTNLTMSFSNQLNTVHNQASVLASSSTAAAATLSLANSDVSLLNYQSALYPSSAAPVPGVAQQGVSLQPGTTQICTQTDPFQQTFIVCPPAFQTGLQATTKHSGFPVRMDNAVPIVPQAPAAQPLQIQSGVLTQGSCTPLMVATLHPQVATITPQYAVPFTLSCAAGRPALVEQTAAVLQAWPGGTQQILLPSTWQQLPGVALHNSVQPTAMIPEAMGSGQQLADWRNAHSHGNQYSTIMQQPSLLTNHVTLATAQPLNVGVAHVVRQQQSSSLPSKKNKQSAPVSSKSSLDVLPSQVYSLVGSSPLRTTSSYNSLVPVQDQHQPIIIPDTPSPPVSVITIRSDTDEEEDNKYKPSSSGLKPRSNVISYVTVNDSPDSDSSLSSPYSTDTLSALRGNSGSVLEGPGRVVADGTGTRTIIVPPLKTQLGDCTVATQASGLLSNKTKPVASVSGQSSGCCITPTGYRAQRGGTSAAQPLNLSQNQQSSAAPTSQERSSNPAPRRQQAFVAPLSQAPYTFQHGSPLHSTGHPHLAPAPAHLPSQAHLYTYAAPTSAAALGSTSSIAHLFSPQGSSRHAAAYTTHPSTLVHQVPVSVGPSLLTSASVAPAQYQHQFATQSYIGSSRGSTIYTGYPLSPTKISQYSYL
# Method Notes: KINOMEscan competition binding
# Measurement Setup: compound 10.0 µM
Consider the following compounds and their measured kinase still bound, per cent of control readings.

Field: example entries. Status: answers known.
[
  {
    "Compound": "COc1cc2ncnc(Nc3cccc(Cl)c3)c2cc1OC",
    "kinase still bound, per cent of control": "48%"
  },
  {
    "Compound": "CCOc1cc(N2CCC(O)CC2)ccc1Nc1ncc2c(n1)N(C)c1ccccc1C(=O)N2C",
    "kinase still bound, per cent of control": "100%"
  },
  {
    "Compound": "N#Cc1cc(-c2ccnc(Nc3ccc(-n4cnc(-c5cccnc5)n4)cc3)n2)cc(N2CCOCC2)c1",
    "kinase still bound, per cent of control": "2.2%"
  },
  {
    "Compound": "CNC(=O)Nc1ccc(-c2nc(N3CC4CCC(C3)O4)c3cnn(C4CCC5(CC4)OCCO5)c3n2)cc1",
    "kinase still bound, per cent of control": "100%"
  },
  {
    "Compound": "CC(=O)c1c(C)c2cnc(Nc3ccc(N4CCNCC4)cn3)nc2n(C2CCCC2)c1=O",
    "kinase still bound, per cent of control": "0.1%"
  }
]

Field kinase still bound, per cent of control (entry O=c1[nH]c2ccccc2n1C1CCN(Cc2ccc(-c3nc4cc5[nH]cnc5cc4nc3-c3ccccc3)cc2)CC1 ) reads 69%

The compound listed as COc1cc(N2CCC(C(N)=O)CC2)ccc1Nc1nc(N)c(Cl)c(Nc2ccccc2S(=O)(=O)C(C)C)n1 has a reported kinase still bound, per cent of control of 100%

Reported kinase still bound, per cent of control ( N#C/C(=C1/Nc2ccccc2S1)c1ccnc(NCCc2cccnc2)n1 ) = 1.2%

For reference, reported kinase still bound, per cent of control for CCN(CCO)CCCOc1ccc2c(Nc3cc(CC(=O)Nc4cccc(F)c4)[nH]n3)ncnc2c1 stands at 40%

###

# Measurement Target: CRK2 (P.falciparum) (UniProt P61075)
# Sequence (P61075 whole entry, looked up): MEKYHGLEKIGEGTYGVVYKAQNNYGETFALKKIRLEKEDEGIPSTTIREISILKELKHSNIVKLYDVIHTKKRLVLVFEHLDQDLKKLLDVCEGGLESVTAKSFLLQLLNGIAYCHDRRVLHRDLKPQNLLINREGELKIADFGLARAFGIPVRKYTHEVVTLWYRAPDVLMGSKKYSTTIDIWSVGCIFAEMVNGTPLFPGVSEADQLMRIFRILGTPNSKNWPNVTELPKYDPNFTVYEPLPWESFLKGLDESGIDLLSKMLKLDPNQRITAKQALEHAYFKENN
# Method Notes: KINOMEscan competition binding
# Measurement Setup: compound 10.0 µM
Value Kind: kinase still bound, per cent of control (%)
Respond numerically; units are % and should not be typed.

[
  {
    "Compound": "CCN1CCN(Cc2ccc(NC(=O)c3ccc(C)c(/C=C/c4cnc5[nH]ccc5c4OC)c3)cc2C(F)(F)F)CC1",
    "Data Value": 93
  },
  {
    "Compound": "CC1=C(C(=O)Nc2cc3cn[nH]c3cc2F)C(c2ccc(C(F)(F)F)cc2)CC(=O)N1 (stereo not drawn)",
    "Data Value": 100
  },
  {
    "Compound": "N#C/C(=C1/Nc2ccccc2S1)c1ccnc(NCCc2cccnc2)n1",
    "Data Value": 100
  },
  {
    "Compound": "CCN(CCO)CCCOc1ccc2c(Nc3cc(CC(=O)Nc4cccc(F)c4)[nH]n3)ncnc2c1",
    "Data Value": 100
  },
  {
    "Compound": "CCc1nc(-c2cccc(C)c2)c(-c2ccnc(NC(=O)c3ccccc3)c2)s1",
    "Data Value": 100
  },
  {
    "Compound": "CCCS(=O)(=O)Nc1ccc(F)c(C(=O)c2c[nH]c3ncc(Cl)cc23)c1F",
    "Data Value": 91
  },
  {
    "Compound": "CC(=O)c1c(C)c2cnc(Nc3ccc(N4CCNCC4)cn3)nc2n(C2CCCC2)c1=O",
    "Data Value": 19
  }
]

Next compound, kinase still bound, per cent of control to be filled in.
get_value(item= O=c1[nH]c2ccccc2n1C1CCN(Cc2ccc(-c3nc4cc5[nH]cnc5cc4nc3-c3ccccc3)cc2)CC1 , readout=kinase still bound, per cent of control) returns 100

###

# Measurement Target: CDK19 (human)
# Method Notes: KINOMEscan competition binding
# Measurement Setup: compound 10.0 µM
Entries and their kinase still bound, per cent of control
Kindly provide the numeric value in % only, without the unit symbol.

[
  {
    "Compound": "CNC(=O)Nc1ccc(-c2nc(N3CC4CCC(C3)O4)c3cnn(C4CCC5(CC4)OCCO5)c3n2)cc1",
    "Measure Unit": "%",
    "kinase still bound, per cent of control": 100
  },
  {
    "Compound": "CCCS(=O)(=O)Nc1ccc(F)c(C(=O)c2c[nH]c3ncc(Cl)cc23)c1F",
    "Measure Unit": "%",
    "kinase still bound, per cent of control": 0.8
  },
  {
    "Compound": "Cc1cn(-c2cc(C(=O)Nc3ccc(C)c(NC(=O)c4ccno4)c3)cc(C(F)(F)F)c2)cn1",
    "Measure Unit": "%",
    "kinase still bound, per cent of control": 100
  },
  {
    "Compound": "CC1=C(C(=O)Nc2cc3cn[nH]c3cc2F)C(c2ccc(C(F)(F)F)cc2)CC(=O)N1 (centres undefined)",
    "Measure Unit": "%",
    "kinase still bound, per cent of control": 80
  },
  {
    "Compound": "N#Cc1cc(-c2ccnc(Nc3ccc(-n4cnc(-c5cccnc5)n4)cc3)n2)cc(N2CCOCC2)c1",
    "Measure Unit": "%",
    "kinase still bound, per cent of control": 88
  }
]

Noted for CCOc1cc(N2CCC(O)CC2)ccc1Nc1ncc2c(n1)N(C)c1ccccc1C(=O)N2C : its kinase still bound, per cent of control reads 100

# kinase still bound, per cent of control (compound: COc1cc(C)c(Sc2cnc(NC(=O)c3ccc(CNC(C)C(C)C)cc3)s2)cc1C(=O)N1CCN(C(C)=O)CC1 (centres undefined) ) is 100

Documented kinase still bound, per cent of control of C=CC(=O)Nc1ccc(C(=O)c2sc(Nc3ccc(N4CCN(C)CC4)cc3OC)nc2N)cc1 : 100

Just so you know, measured kinase still bound, per cent of control for COc1cc(N2CCC(C(N)=O)CC2)ccc1Nc1nc(N)c(Cl)c(Nc2ccccc2S(=O)(=O)C(C)C)n1 came out at 100
